Assay: Bioavailability assay in rats, Experiment II (dihydrobromide)
Assay type: in vivo
Conditions: both sexes, rat, plasma, po; Wistar rats, 20 mg/kg intragastric gavage
measurementKind: AUC(0-inf) (ng·h/mL)

| smilesRepr | measurementKind | measurementUnit | measuredValue |
| --- | --- | --- | --- |
| Br.Br.COCCOc1cc2ncnc(Nc3ccc(F)c(Cl)c3)c2cc1NC(=O)C=C1CCN(CCOC)CC1 | AUC(0-inf) | ng·h/mL | 5550 |

====

Tested on: human pancreatic cancer cell line AsPC-1
Test: In vitro inhibitory action on human tumor cells, AsPC-1 (MTT)
Assay type: cell-based
Details: ASPC1, 72 h, MTT assay, usually 3 days
pIC50: −log10 of the molar value.
measurementKind: pIC50

| smilesRepr | assayedTarget | measurementKind | measuredValue |
| --- | --- | --- | --- |
| COCCOc1cc2ncnc(Nc3ccc(F)c(Cl)c3)c2cc1NC(=O)C=C1CCN(CCOC)CC1.CS(=O)(=O)O | human pancreatic cancer cell line AsPC-1 | pIC50 | 5.37 |

====

Assay: Bioavailability assay in rats, Experiment I (dihydrochloride)
Type: in vivo
Conditions: male, rat, plasma, oral; Wistar rats, 20 mg/kg intragastric gavage (ig), 0.083 h; read-out: Average Plasma Drug Concentration

| molecule | measurementUnit | concentration at 0.083 h |
| --- | --- | --- |
| COCCOc1cc2ncnc(Nc3ccc(F)c(Cl)c3)c2cc1NC(=O)C=C1CCN(CCOC)CC1.Cl.Cl [Compound 2, dihydrochloride] | ng/mL | 17.1 |

====

Experiment: Bioavailability assay in rats, Experiment IV (dimethylsulfonate)
Assay type: in vivo
Settings: both sexes, rat, plasma, po; SD rats, single intragastric administration of 5.0 mg/kg, n=6
Method: Experiment IV Bioavailability Assay for N-[4-(3-chloro-4-fluorophenylamino)-7-(2-methoxyethoxy)quinazolin-6-yl]-2-[1-(2-methoxyethyl)piperidin-4-ylidene]acetamide Dimethylsulfonate in Rats […] The main pharmacokinetic parameters and oral bioavailability results were calculated by using DAS2.0 (statistical moment). […]
measurementKind: Cmax (ng/mL)

| smilesRepr | measuredValue |
| --- | --- |
| COCCOc1cc2ncnc(Nc3ccc(F)c(Cl)c3)c2cc1NC(=O)C=C1CCN(CCOC)CC1.CS(=O)(=O)O | 75.2 |

====

Experiment: Bioavailability assay in rats, Experiment I (dihydrochloride)
Type: in vivo
Conditions: male, rat, plasma, oral; Wistar rats, 20 mg/kg ig, 1 h; read-out: Average Plasma Drug Concentration
measurementKind: concentration at 1 h (ng/mL)

| compound | measurementUnit | measuredValue |
| --- | --- | --- |
| COCCOc1cc2ncnc(Nc3ccc(F)c(Cl)c3)c2cc1NC(=O)C=C1CCN(CCOC)CC1.Cl.Cl [Compound 2, dihydrochloride] | ng/mL | 342 |

====

Assay: Bioavailability assay, Experiment III (free base)
Type: in vivo
Conditions: male, rat, plasma, oral; Wistar rats, 20 mg/kg ig vs 20 mg/kg iv
measurementKind: bioavailability (%)

| compound | measuredValue |
| --- | --- |
| COCCOc1cc2ncnc(Nc3ccc(F)c(Cl)c3)c2cc1NC(=O)C=C1CCN(CCOC)CC1 [Compound 1] | 23.9 |

====

Recorded pIC50 values for a group of molecules are listed next.
Target: EGFR (Homo sapiens, UniProt P00533)
Construct: purchased Invitrogen Company PV3872
Sequence (P00533 25-1210): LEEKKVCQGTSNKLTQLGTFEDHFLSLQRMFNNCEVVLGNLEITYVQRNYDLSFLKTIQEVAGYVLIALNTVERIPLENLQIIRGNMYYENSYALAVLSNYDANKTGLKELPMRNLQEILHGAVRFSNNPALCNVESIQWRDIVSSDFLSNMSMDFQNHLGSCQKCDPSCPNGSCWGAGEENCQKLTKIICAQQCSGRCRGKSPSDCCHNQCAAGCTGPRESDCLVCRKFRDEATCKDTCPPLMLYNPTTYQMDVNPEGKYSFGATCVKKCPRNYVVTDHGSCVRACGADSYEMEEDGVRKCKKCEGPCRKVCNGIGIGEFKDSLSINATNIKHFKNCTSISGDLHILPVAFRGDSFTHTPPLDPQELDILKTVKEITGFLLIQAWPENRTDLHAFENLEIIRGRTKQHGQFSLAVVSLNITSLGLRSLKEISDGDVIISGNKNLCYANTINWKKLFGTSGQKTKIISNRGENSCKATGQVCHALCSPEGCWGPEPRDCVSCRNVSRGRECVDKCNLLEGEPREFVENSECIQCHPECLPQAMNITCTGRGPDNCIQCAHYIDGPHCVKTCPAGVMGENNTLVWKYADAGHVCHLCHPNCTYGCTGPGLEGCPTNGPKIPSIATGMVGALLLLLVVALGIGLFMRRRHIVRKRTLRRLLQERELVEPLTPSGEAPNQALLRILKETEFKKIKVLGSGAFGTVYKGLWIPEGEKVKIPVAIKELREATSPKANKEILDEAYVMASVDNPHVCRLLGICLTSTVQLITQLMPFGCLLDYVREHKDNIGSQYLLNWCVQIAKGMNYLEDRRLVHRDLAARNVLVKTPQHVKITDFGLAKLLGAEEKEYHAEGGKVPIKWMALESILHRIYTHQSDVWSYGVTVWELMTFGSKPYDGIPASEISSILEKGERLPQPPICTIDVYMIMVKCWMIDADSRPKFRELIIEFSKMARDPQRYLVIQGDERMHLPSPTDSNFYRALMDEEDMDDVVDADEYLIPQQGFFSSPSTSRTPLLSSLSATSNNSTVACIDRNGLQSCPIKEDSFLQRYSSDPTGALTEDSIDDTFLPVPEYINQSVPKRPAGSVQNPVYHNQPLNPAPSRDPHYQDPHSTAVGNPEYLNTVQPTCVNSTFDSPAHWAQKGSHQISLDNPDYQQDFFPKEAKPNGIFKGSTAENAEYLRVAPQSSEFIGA
Test: Inhibitory effect on tyrosine kinase activity of EGFR
Format: biochemical
Details: EGFR 40 ng/ml, ATP 10 μM, 30 min
pIC50: −log10 of the molar value.
measurementKind: pIC50

| molecule | measurementKind | measuredValue |
| --- | --- | --- |
| COCCOc1cc2ncnc(Nc3ccc(F)c(Cl)c3)c2cc1NC(=O)C=C1CCN(CCOC)CC1 [Compound 11, di(p-toluenesulfonate)] | pIC50 | 9.40 |
| COCCOc1cc2ncnc(Nc3ccc(F)c(Cl)c3)c2cc1NC(=O)C=C1CCN(CCOC)CC1 [Compound 6, dinitrate] | pIC50 | 9.22 |
| COCCOc1cc2ncnc(Nc3ccc(F)c(Cl)c3)c2cc1NC(=O)C=C1CCN(CCOC)CC1 [Compound 9, difumarate] | pIC50 | 9.30 |
| COCCOc1cc2ncnc(Nc3ccc(F)c(Cl)c3)c2cc1NC(=O)C=C1CCN(CCOC)CC1 [Compound 1] | pIC50 | 9.40 |

The measured values listed here are drawn from patent US9840494B2.
